Test system: KM12 colon
Assay: NCI tumour cell line growth inhibition, 48 h
READOUT_LABEL: TGI

Example entries begin here.
COC1=C(OC)C(=O)C(SC/C=C(\C)CCCC(C)CCCC(C)CCCC(C)C)=CC1=O (stereo not given) | > 87.9 µM
O=C(O)/C=C/c1nc2ccccc2c(=O)o1 | > 100 µM
NC(=O)c1csc(C2OC(COP(=O)(O)CP(=O)(O)OCC3OC(n4cnc5c(N)ncnc54)C(O)C3O)C(O)C2O)n1 (stereo not given) | > 100 µM
CC1(C)OC(=S)N(c2ccccc2)C12C=Cc1ccccc1O2 (stereo not given) | > 100 µM

# input for lookup
Please report the recorded TGI for O=c1[nH]cc(F)c(=O)n1C1OC(CO)C(O)C1O (stereo not given) .
> 100 µM

###

System: DU-145 prostate
Assay: NCI tumour cell line growth inhibition, 48 h
Where a SMILES comes first, the peptide text is derived from it. The star is where a group is joined. Palmitoyl = CCCCCCCCCCCCCCCC(=O)*
Overview of reported TGI across a group of molecules:

Example entries begin here.
Fc1ccc(N2C(=S)SC(=Nc3ccccc3)C2=Nc2ccccc2)cc1 | > 100 µM
OCCN(CCO)c1ncnc2nc[nH]c12 | > 100 µM

Please report the recorded TGI for "COC(=O)[C@]1(NC(=O)c2ccccc2)C[C@H]1C=O" .
> 100 µM

Please report the recorded TGI for COc1ccc(NC(=O)C2CCC(CNS(=O)(=O)c3ccccc3)CC2)cc1OC (configuration not stated) .
> 100 µM

Please report the recorded TGI for "COc1cc(O)c2c(=O)c(O)c(-c3ccc(O)c(OC)c3)oc2c1" .
> 100 µM

Please report the recorded TGI for COC1C(N)C(OC2C(Oc3cccc4c(O)c5c(=O)oc6ccc(C)c7c(=O)oc(c34)c5c67)OC(C)C(O)C2(C)O)OC(C)C1O (configuration not stated) .
1.33 µM

Please report the recorded TGI for OCCNC1c2cc(Cl)ccc2-c2c(Cl)cc(Cl)cc21 (configuration not stated) .
> 100 µM

Please report the recorded TGI for "COc1cc2c(c(O)c1OC)C(=O)[C@@H]1CCC(=O)N1C2" .
> 100 µM

Please report the recorded TGI for "Cc1cc(N(CCC#N)CCC#N)ccc1/C(N=Nc1cccc(Cl)c1)=N/NC(=O)c1cc(Cl)ccc1O" .
42.6 µM

Please report the recorded TGI for "COc1ccc(/C=C(\C#N)n2nnc3c(F)cccc32)cc1" .
> 40.2 µM

Please report the recorded TGI for "N#CCCN1C/C(=C/c2ccc(Cl)cc2)C(=O)/C(=C/c2ccc(Cl)cc2)C1" .
4.2 µM

Please report the recorded TGI for O=C(CC1(O)C(=O)N(Cc2ccccc2)c2ccccc21)c1ccc(C(=O)NCC2CCC3(CC2)OOC2(CCCCC2)OO3)cc1 (configuration not stated) .
0.625 µM

Please report the recorded TGI for COC(=O)C1=C(OC(=O)/C(=C/c2ccc(Cl)cc2)c2ccc(Cl)cc2)C(C(=O)OC)[C@]2(O)[C@@H](C(=O)OC)[C@H]1C[C@@H](c1ccccc1)[C@@H]2C(=O)OC (some centres not stated) .
> 100 µM

Please report the recorded TGI for CCCCCCCCCCCCCCCC(=O)N1CCCC1C(=O)NCC(=O)NC(Cc1ccccc1)C(=O)NC(C)C(=O)NC(CO)C(=O)NC(Cc1ccc(O)cc1)C(=O)NC(CCCCN)C(=O)NC(CC(C)C)C(=O)NC(CCCN=C(N)N)C(=O)N1CCCC1C(=O)NCC(N)=O (configuration not stated) (Palmitoyl-PGFASYKLRPG-NH2; configuration not given here) .
43.6 µM
